# test name: MM6 cell growth/viability (WST-1 reagent)
# Format: cell-based
# details: human, MonoMac-6 (MM6) macrophage cell line, drug alone 1 μM, n=3, read-out: viability of MM6 cells compared to untreated MM6 cells
measure: viability at 48 h, 1 μM (%)
Give the number; % is assumed, so skip it.

Task item: Dear colleague, please send me the reported viability at 48 h, 1 μM for CCOCC(O)COc1ccc(NC(=O)CC[S+](C)C)cc1 (stereo not shown) when you can.
Reply: 94

* * *

# test name: MM6 cell growth/viability (WST-1 reagent)
# Assay type: cell-based
# details: human, MonoMac-6 (MM6) macrophage cell line, drug alone 30 μM, n=3, read-out: viability of MM6 cells compared to untreated MM6 cells
measure: viability at 48 h, 30 μM (%)
Supply the numeric figure in %, leaving out any unit text.

Task item: For the molecule CC(C)c1nc(N(C)S(C)(=O)=O)nc(-c2ccc(F)cc2)c1/C=C/[C@@H](O)C[C@@H](O)CC(=O)O , give its reported viability at 48 h, 30 μM.
Reply: 102

* * *

# test name: MM6 cell growth/viability (WST-1 reagent)
# Format: cell-based
# details: human, MonoMac-6 (MM6) macrophage cell line, drug alone 10 μM, n=3, read-out: viability of MM6 cells compared to untreated MM6 cells
Below, each of the molecules is paired with its reported viability at 48 h, 10 μM value.
Numbers only; they are read as %.

CC(C)c1nc(N(C)S(C)(=O)=O)nc(-c2ccc(F)cc2)c1/C=C/[C@@H](O)C[C@@H](O)CC(=O)O; 105

Next:
Task item: Note viability at 48 h, 10 μM for the molecule shown: CCOCC(O)COc1ccc(NC(=O)CC[S+](C)C)cc1 (centres unmarked)
Reply: 92
